Cited source for all entries: ChEMBL document CHEMBL1201862

Test system: CAKI-1
Experiment: NCI tumour cell line growth inhibition, 48 h
Activity calls are given as the source filed them. Cut-off read from the data, not from the text of the source: active = GI50 up to about 1.1 µM and inactive = higher.
Returns: one label drawn from active, inactive

Query :: Hey, what did the test say about `O=C1C=C(Nc2cccnc2)c2ccccc2/C1=N/O` ?
Result :: inactive

Query :: Hey, what did the test say about `CN(C)c1nc2oc(-c3ccccc3)c(-c3ccccc3)c2c2nnnn12` ?
Result :: inactive

Query :: Hey, what did the test say about C[C@]12CCC(=O)C=C1CC[C@@H]1C2CC[C@]2(C)Nc3c(cnn3-c3ccccc3)CC12 (some centres not stated) ?
Result :: inactive

Query :: Hey, what did the test say about `COc1c(O)c2ccccc2c2cc(O)ccc12` ?
Result :: inactive

Query :: Hey, what did the test say about `COc1ccc2oc3cccc(NCCN(C)C)c3c(=O)c2c1` ?
Result :: inactive

Query :: Hey, what did the test say about CC(O)CCC(=O)c1ccoc1 (configuration not stated) ?
Result :: inactive

Query :: Hey, what did the test say about C=C1C2CCCC1C1(S(C)(=O)=O)CCCCC21O (configuration not stated) ?
Result :: inactive

Query :: Hey, what did the test say about `CCOP(=O)(OCC)/C(C#N)=C/c1ncc[nH]1` ?
Result :: inactive

Query :: Hey, what did the test say about CC(C)C1OC(/C=C/c2ccccc2)OCC1(C)C (configuration not stated) ?
Result :: inactive

Query :: Hey, what did the test say about CCC(C)C(=O)OCC(=O)c1ccc(-c2ccccc2)cc1 (configuration not stated) ?
Result :: inactive

Query :: Hey, what did the test say about `O=C(N/N=C/c1c(-c2ccccc2)no[n+]1[O-])N1CCOCC1` ?
Result :: inactive

Query :: Hey, what did the test say about COc1cc2cc(C(=O)N3CC(CCl)c4ccc(O)cc43)[nH]c2c(OC)c1OC (configuration not stated) ?
Result :: active

Query :: Hey, what did the test say about `O=C(O)c1cc(C(=O)O)nc(C(=O)O)c1` ?
Result :: inactive

Query :: Hey, what did the test say about `Clc1ccc(Nc2nc(Cl)c3nc[nH]c3n2)cc1Cl` ?
Result :: inactive

Query :: Hey, what did the test say about C=C1C(=O)OC2CC1CCC1(C)OC1CCC(C)=CCCC2(C)O (configuration not stated) ?
Result :: inactive

Query :: Hey, what did the test say about `N#Cc1ccccc1Nc1ccccc1S` ?
Result :: inactive

Query :: Hey, what did the test say about COC12CCC(C(C(=O)c3ccccc3)=C1C(=O)c1ccccc1)C(O)C2 (configuration not stated) ?
Result :: inactive

====

Tested on: BT-549
Test: NCI tumour cell line growth inhibition, 48 h
Activity calls are given as the source filed them. Rule as the data show it: active = GI50 up to about 1.1 µM and inactive = higher.
ENDPOINT_LABEL: GI50

Query :: Give a short answer stating reported GI50 for C[C@]12OC(=O)[C@]3(O)CC[C@H]4[C@@H](C[C@@H](O)[C@@]5(Cl)CC=CC(=O)[C@]45C)[C@]45OCC6C(=O)O[C@@H]1C[C@@]6(C)[C@H](C4=O)[C@@]32O5 (stereo partly drawn) .
Result :: 0.586 µM (active)

Query :: Give a short answer stating reported GI50 for `COC(=O)[C@@H]1c2c(oc3cc(CO)cc(O)c3c2=O)C=C[C@H]1O` .
Result :: 2.94 µM (inactive)

Query :: Give a short answer stating reported GI50 for O=C1CSC(c2cc3cc(Br)ccc3nc2Cl)N1c1ccc(Cl)cc1 (stereo not drawn) .
Result :: 26.8 µM (inactive)

Query :: Give a short answer stating reported GI50 for Nc1nc(O)c2nc(CNc3ccc(C(=O)NC(CCC(=O)O)C(=O)O)cc3)cnc2n1 (stereo not drawn) .
Result :: > 100 µM (inactive)

Query :: Give a short answer stating reported GI50 for O=P1(Oc2ccccc2)N=P(c2ccccc2)(c2ccccc2)C=C(c2ccc(Cl)cc2)N1 (stereo not drawn) .
Result :: 16 µM (inactive)

Query :: Give a short answer stating reported GI50 for CCC(CS(=O)(=O)O)[N+](=O)[O-] (stereo not drawn) .
Result :: > 100 µM (inactive)

Query :: Give a short answer stating reported GI50 for CCC(C)C(=O)OCC(=O)c1ccc(-c2ccccc2)cc1 (stereo not drawn) .
Result :: 45.4 µM (inactive)

Query :: Give a short answer stating reported GI50 for `Cc1ccc(-c2nc3cc([N+](=O)[O-])ccc3[nH]2)cc1` .
Result :: > 100 µM (inactive)

Query :: Give a short answer stating reported GI50 for `CC[C@H](O)[C@H](C)C=C1SCCCS1` .
Result :: > 100 µM (inactive)

Query :: Give a short answer stating reported GI50 for `COc1ccc2oc(=O)c(CC=C(C)C)c(O)c2c1C` .
Result :: > 100 µM (inactive)

Query :: Give a short answer stating reported GI50 for `COc1ccc(-c2oc3c(OC)c(OC)c(OC)c(O)c3c(=O)c2OC)cc1OC` .
Result :: 34.4 µM (inactive)

Query :: Give a short answer stating reported GI50 for `CCn1c(-c2ccccc2)nc2c1C(=O)c1ccccc1C2=O` .
Result :: 24.9 µM (inactive)

Query :: Give a short answer stating reported GI50 for COC(=O)[C@@H](Cc1ccccc1)N1O[C@]12CCCC[C@@H]2NC(=O)OC(C)(C)C (stereo partly drawn) .
Result :: 18.1 µM (inactive)
